Test protocol: Inhibition of Human respiratory syncytial virus A2 Fusion protein expressed in Hep2 cells assessed as reduction in virus-induced cytopathic effect after 4 days by XTT assay
Attribute: pEC50
Reminder that pEC50 means the negative base-10 logarithm of the concentration expressed in mol/L.

Worked cases, answers included:
# Smiles notation, Reported value
data = [
    ("CC[C@H]1c2cc3nc(N4CC[C@H](N)C4)c(C)c(n3n2)NCCCCOc2ccc(C)cc2C(=O)N1C", 8.85),
    ("CC[C@H]1c2cc3nc(N4CC[C@H](N)C4)cc(n3n2)N(C)CCCOc2ccc(C)cc2C(=O)N1C", 7.77),
    ("CC[C@H]1c2cc3nc(N4CC[C@H](N)C4)cc(n3n2)N(C)CCCCOc2ccc(C)cc2C(=O)N1C", 9.18),
]

Then there is this compound:
Data request: Name the recorded pEC50 for CC[C@H]1c2cc3nc(N4CC[C@H](N)C4)cc(n3n2)N(C)CCCCCOc2ccc(C)cc2C(=O)N1C .
Data returned: 8.21
